Assay: qHTS assay for small molecules that induce genotoxicity in human embryonic kidney cells expressing luciferase-tagged ATAD5 - cell viability (AID 651634); also: nearly all actives have a fitted effect of over 25% in size
Details: HEK293T ATAD5-luc cells viability, CellTiter-Fluor, 15.5 h; series mostly up to 83.3 µM
Records with an inconclusive call do not appear. Activity calls are given as the source filed them. Calls follow the shape of the full dose curve.
Answer with one of the outcomes given here: 1.0 (active), 0.0 (inactive)

Below, 6 compounds whose answers are already recorded.
- CCCCOc1ccc(CC(=O)NO)cc1: 1.0
- Cc1occc1S: 0.0
- CCCCCCCC/C=C\CCCCCCCC(N)=O: 0.0
- CC(C)(C)c1cc(CCC(=O)OCC(COC(=O)CCc2cc(C(C)(C)C)c(O)c(C(C)(C)C)c2)(COC(=O)CCc2cc(C(C)(C)C)c(O)c(C(C)(C)C)c2)COC(=O)CCc2cc(C(C)(C)C)c(O)c(C(C)(C)C)c2)cc(C(C)(C)C)c1O: 0.0
- CC(=O)SCc1ccco1: 0.0
- Cc1cc(CC(=O)O)c(C)n1-c1ccc(Cl)cc1: 0.0

Ask | Recorded call for CCCCCCCCC(CO)CCCCCC (centres undefined) ?
Reply | 0.0

Ask | Then this compound: O=C=NC1CCC(CC2CCC(N=C=O)CC2)CC1 (centres undefined)
Reply | 0.0

Ask | Then this compound: O=C(CCN1CCN2CCCC2C1)N1c2ccccc2Sc2ccc(Cl)cc21 (centres undefined)
Reply | 0.0

Ask | Then this compound: "O=C(Cl)c1c(Cl)cccc1Cl"
Reply | 0.0

Ask | Then this compound: "Cc1cccc(OCCOc2cccc(C)c2)c1"
Reply | 0.0

Ask | Then this compound: C=CC(C)(CCC=C(C)C)OC(=O)c1ccccc1 (centres undefined)
Reply | 0.0

Ask | Then this compound: "Cn1c(N)nc2nc[nH]c2c1=O"
Reply | 0.0

Ask | Then this compound: "Cc1c(Cn2ccnc2)c2ccccc2n1CCC(=O)O"
Reply | 0.0

Ask | Then this compound: "N=C(N=C(N)N)N1CCOCC1"
Reply | 0.0

Ask | Then this compound: "CC(C)c1ccc2c(C(C)C)cc(C(C)C)c(S(=O)(=O)O)c2c1"
Reply | 0.0

Ask | Then this compound: "COC(=O)C(C)=O"
Reply | 0.0

Ask | Then this compound: "CN1CCC[C@@H]1c1cccnc1"
Reply | 0.0

Ask | Then this compound: "CCN1CCC[C@H]1CNC(=O)c1c(OC)ccc(Br)c1OC"
Reply | 0.0

###

Assay: qHTS assay for identifying genotoxic compounds that show differential cytotoxicity against isogenic chicken DT40 cell lines with known DNA damage response pathways - wild type cell line (AID 743012); also: nearly all actives have a fitted effect of over 60% in size
Settings: DT40 wild type chicken cells viability, CellTiter-Glo, 40 h; series mostly up to 68.4 µM
Results filed as inconclusive are left out. The source made the active and inactive calls. Calls come from the whole dose curve; as a rule, active = well fitted cell-killing curve with a large enough effect in the repeat runs; inconclusive = weak or mixed curves, or effect the other way; inactive = no such curve, though single readings can be large or run the other way.
Answer with one of the outcomes given here: 1 for active, -1 for inactive

Below, 4 compounds whose answers are already recorded.
- CC(=O)OC/C=C/c1ccccc1: -1
- Cc1cccc(C(C)(C)C)c1O: -1
- CC(=O)SCc1ccco1: -1
- CC(=O)OCCc1ccccc1: -1

Kindly consider the entry below.
Ask | Recorded call for "CCCCOc1cc(C(=O)OCCN(CC)CC)ccc1N" ?
Reply | 1

###

Experiment: A CellTox Green Cytotoxicity Assay to monitor cytotoxicity in HEK293 cells - 8 hour (AID 1224884); also: nearly all actives have a fitted effect of over 35% in size
Conditions: CellTox Green fluorescence; series mostly up to 76.8 µM
Source text: National Center for Advancing Translational Sciences [NCATS] NIH Chemical Genomics Center [NCGC] U.S. Environmental Protection Agency [EPA] National Institutes of Environmental Health Sciences [NIEHS] National Toxicology Program [NTP] Cell-based models are critical for drug discovery. […] Viable cells produce no appreciable increases in fluorescence. Therefore, the fluorescence signal produced by the binding interaction with dead cell DNA is proportional to cytotoxicity. […]
Results filed as inconclusive are left out. The source made the active and inactive calls. Calls follow the shape of the dose curve; as a rule, active = well fitted activation curve with a large enough effect in the repeat runs; inconclusive = weak or mixed curves; inactive = flat fitted curve, though single readings scatter.
ENDPOINT LABEL: cytotoxicity increase

• CN1CCC(=C2c3ccccc3CCc3sccc32)CC1 = inactive
• CC(C)CC=O = inactive
• O=c1[nH]cnc2ccccc12 = inactive
• CCOc1ccc(NC(=O)CC(C)=O)cc1 = inactive
